Molecular target: endothelin receptor (Human Placenta)
Assay: [125I]-ET-1 receptor binding, Human Placenta
Please assign condition not met whenever IC50 is at or above 4 µM, and condition met whenever it is below.

Example results:
> print(dat)
                                   compound     category.label
1  C[C@H]1CCCC[C@@H]1OC(=O)N[C@](C)(Cc1c[nH]c2ccccc12)C(=O)N[C@H](CC(=O)O)Cc1ccccc1 (relative stereo)      condition met
2  CC(Cc1c[nH]c2ccccc12)(NC(=O)OC1C2CC3CC(C2)CC1C3)C(=O)NC(CC(=O)O)Cc1ccccc1 (centres unmarked)      condition met
3  CC(Cc1c[nH]c2ccccc12)(NC(=O)OC1C2CC3CC(C2)CC1C3)C(=O)NC(CSCC(=O)O)Cc1ccccc1 (centres unmarked)  condition not met
4  C[C@](Cc1c[nH]c2ccccc12)(NC(=O)OC1C2CC3CC(C2)CC1C3)C(=O)NC(CC(=O)O)Cc1ccccc1 (some centres unmarked)      condition met

Next item in the queue.
Ask: Say whether its IC50 is strictly beneath 4 µM. Entry: C[C@@](Cc1c[nH]c2ccccc12)(NC(=O)OC1C2CC3CC(C2)CC1C3)C(=O)N[C@H](CC(=O)O)Cc1ccccc1 (relative stereo)
Reply: condition not met

###

Molecular target: ETA (rabbit renal artery vascular smooth muscle cells) (Oryctolagus cuniculus)
Construct: The cells used were rabbit renal artery vascular smooth muscle cells; endogenous in cells; host or cells: rabbit renal artery vascular smooth muscle cells
Sequence (A5A8K3 21-427): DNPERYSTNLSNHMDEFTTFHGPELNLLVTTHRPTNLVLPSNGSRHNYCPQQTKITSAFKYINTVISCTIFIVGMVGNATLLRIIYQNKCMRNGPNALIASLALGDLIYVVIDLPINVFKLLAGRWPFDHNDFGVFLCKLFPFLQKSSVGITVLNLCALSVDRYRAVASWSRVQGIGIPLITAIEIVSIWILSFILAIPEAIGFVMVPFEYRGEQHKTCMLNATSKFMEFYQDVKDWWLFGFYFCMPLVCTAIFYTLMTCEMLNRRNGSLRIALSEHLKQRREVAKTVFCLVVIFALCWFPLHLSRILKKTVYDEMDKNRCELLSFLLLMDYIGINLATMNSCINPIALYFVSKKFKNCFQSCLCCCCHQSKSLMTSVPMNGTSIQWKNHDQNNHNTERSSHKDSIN
Test: Endothelin receptor binding assay-A (ERBA-A), intact cell binding of [125I]-ET-1
Conditions: at 10 μM
ERBA-A % inhibition at 10 μM values for the compounds below.
Form entry: value (%) — number only.

> print(dat)
                                   compound                        measurement.target            measured.parameter  assay.value
1  CC(Cc1c[nH]c2ccccc12)(NC(=O)OC1C2CC3CC(C2)CC1C3)C(=O)NC(CCCCC(=O)O)Cc1ccccc1 (stereo not shown) [Compound 15]  ETA (rabbit renal artery vascular smooth muscle cells) (Oryctolagus cuniculus)  ERBA-A % inhibition at 10 μM         51.6
2  CC(Cc1c[nH]c2ccccc12)(NC(=O)OC1C2CC3CC(C2)CC1C3)C(=O)NC(C=CC=CC(=O)O)Cc1ccccc1 (stereo not shown) [Compound 14]  ETA (rabbit renal artery vascular smooth muscle cells) (Oryctolagus cuniculus)  ERBA-A % inhibition at 10 μM         54.3
3  CC(Cc1c[nH]c2ccccc12)(NC(=O)OC1C2CC3CC(C2)CC1C3)C(=O)NC(CC(=O)O)Cc1ccc([N+](=O)[O-])cc1 (stereo not shown) [Compound 11]  ETA (rabbit renal artery vascular smooth muscle cells) (Oryctolagus cuniculus)  ERBA-A % inhibition at 10 μM         47.7

Turning now to a further record.
Ask: Name the recorded ERBA-A % inhibition at 10 μM for C[C@](Cc1c[nH]c2ccccc12)(NC(=O)OC1C2CC3CC(C2)CC1C3)C(=O)NC(CC(=O)O)Cc1ccc(N)cc1 (stereo partly shown) [Compound 9] .
Reply: 33.5

###

IC50 values for the compounds below.
Target: endothelin receptor (Rat Heart)
Experiment: [125I]-ET-1 receptor binding, Rat Heart
Form entry: value (µM) — number only.

Examples with their reported IC50 follow.
> print(dat)
                                   compound               measurement.target  unit.tag  assay.value
1  C[C@](Cc1c[nH]c2ccccc12)(NC(=O)OC1C2CC3CC(C2)CC1C3)C(=O)NC(CC(=O)O)Cc1ccccc1 (some centres unmarked)  endothelin receptor (Rat Heart)        µM         34.5
2  C[C@H]1CCCC[C@@H]1OC(=O)N[C@](C)(Cc1c[nH]c2ccccc12)C(=O)N[C@H](CC(=O)O)Cc1ccccc1 (relative stereo)  endothelin receptor (Rat Heart)        µM         9.25
3  CC(Cc1c[nH]c2ccccc12)(NC(=O)OC1C2CC3CC(C2)CC1C3)C(=O)NC(CSCC(=O)O)Cc1ccccc1 (centres unmarked)  endothelin receptor (Rat Heart)        µM         9.06
4  C[C@@](Cc1c[nH]c2ccccc12)(NC(=O)OC1C2CC3CC(C2)CC1C3)C(=O)N[C@H](CC(=O)O)Cc1ccccc1 (relative stereo)  endothelin receptor (Rat Heart)        µM         47.3

Turning now to a further record.
Ask: Name the recorded IC50 for CC(Cc1c[nH]c2ccccc12)(NC(=O)OC1C2CC3CC(C2)CC1C3)C(=O)NC(CC(=O)O)Cc1ccccc1 (centres unmarked) .
Reply: 7.91

###

Target: ETB (rat cerebellar membranes) (Rattus norvegicus)
Construct: thaw one aliquot of frozen rat cerebellar membranes; from tissue; host or cells: rat cerebellar membranes
Sequence (P21451 27-442): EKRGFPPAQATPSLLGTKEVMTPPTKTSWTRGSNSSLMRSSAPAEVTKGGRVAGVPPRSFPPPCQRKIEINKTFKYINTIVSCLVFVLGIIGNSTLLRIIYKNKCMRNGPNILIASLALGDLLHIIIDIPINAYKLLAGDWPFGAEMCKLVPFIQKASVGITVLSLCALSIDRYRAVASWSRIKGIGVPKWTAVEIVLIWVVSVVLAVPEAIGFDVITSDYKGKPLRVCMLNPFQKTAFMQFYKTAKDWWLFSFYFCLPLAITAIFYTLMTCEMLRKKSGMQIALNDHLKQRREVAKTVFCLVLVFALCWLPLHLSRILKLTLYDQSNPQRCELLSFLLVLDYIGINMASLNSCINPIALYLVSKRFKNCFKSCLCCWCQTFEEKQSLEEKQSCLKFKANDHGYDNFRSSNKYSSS
Experiment: Endothelin receptor binding assay-B (ERBA-B), [125I]-ET-1 binding in rat cerebellar membranes
Details: at 10 μM
Method: The compounds of Formula I are valuable antagonists of endothelin. […] Compounds of Formula I were tested for their ability to inhibit [^125 I]-ET-1([^125 I]-Endothelin-1) binding in a receptor assay according to the following procedures Doherty, A. M., et al, J. Cardiovascul. Pharmacol. 17(Suppl 7):S59-61 (1991) and Doherty, A. M., et al, Bio. Org. Med. Chem. Lett. in press (1992): […] Count filters for radioactivity in gamma counter.
measured parameter: ERBA-B % inhibition at 10 μM (%)
Form entry: value (%) — number only.

Examples with their reported ERBA-B % inhibition at 10 μM follow.
> print(dat)
                                   molecule            measured.parameter  assay.value
1  CC(Cc1c[nH]c2ccccc12)(NC(=O)OC1C2CC3CC(C2)CC1C3)C(=O)NC(CC(=O)O)Cc1ccc([N+](=O)[O-])cc1 (stereo not shown)  ERBA-B % inhibition at 10 μM         51.4
2  C[C@](Cc1c[nH]c2ccccc12)(NC(=O)OC1C2CC3CC(C2)CC1C3)C(=O)NC(CC(=O)O)Cc1ccc(N)cc1 (stereo partly shown)  ERBA-B % inhibition at 10 μM          9.4
3  CC(Cc1c[nH]c2ccccc12)(NC(=O)OC1C2CC3CC(C2)CC1C3)C(=O)NC(CCCCC(=O)O)Cc1ccccc1 (stereo not shown)  ERBA-B % inhibition at 10 μM         36.5

Ask: Name the recorded ERBA-B % inhibition at 10 μM for CC(Cc1c[nH]c2ccccc12)(NC(=O)OC1C2CC3CC(C2)CC1C3)C(=O)NC(C=CC=CC(=O)O)Cc1ccccc1 (stereo not shown) .
Reply: 39.8

###

Observed IC50 for ETB (rat cerebellar membranes) (Rattus norvegicus), reported per entry below.

> print(dat)
                                   molecule                        measurement.target  measured.parameter  assay.value
1  C[C@](Cc1c[nH]c2ccccc12)(NC(=O)NC1CCCCC1)C(=O)O  ETB (rat cerebellar membranes) (Rattus norvegicus)                IC50   > 10000 nM

Turning now to a further record.
Ask: Name the recorded IC50 for C[C@H]1CCCC[C@@H]1OC(=O)N[C@](C)(Cc1c[nH]c2ccccc12)C(=O)N[C@H](CC(=O)O)Cc1ccccc1 (relative stereo) .
Reply: 1500 nM

###

Biological target: ETA (rabbit renal artery vascular smooth muscle cells) (Oryctolagus cuniculus)
Construct: The cells used were rabbit renal artery vascular smooth muscle cells; endogenous in cells
Experiment: Endothelin receptor binding assay-A (ERBA-A), intact cell binding of [125I]-ET-1
Details: rabbit renal artery vascular smooth muscle cells, [125I]-ET-1 25 pM
measured parameter: IC50 (µM)
Form entry: value (µM) — number only.

> print(dat)
                                   compound                        measurement.target  assay.value
1  C[C@](Cc1c[nH]c2ccccc12)(NC(=O)NC1CCCCC1)C(=O)O  ETA (rabbit renal artery vascular smooth muscle cells) (Oryctolagus cuniculus)          1.5

Turning now to a further record.
Ask: Name the recorded IC50 for C[C@H]1CCCC[C@@H]1OC(=O)N[C@](C)(Cc1c[nH]c2ccccc12)C(=O)N[C@H](CC(=O)O)Cc1ccccc1 (relative stereo) .
Reply: 46
